Target: T1, RNase R (full-length) (Escherichia coli BL21(DE3), UniProt P21499 1-813)
T1 sequence: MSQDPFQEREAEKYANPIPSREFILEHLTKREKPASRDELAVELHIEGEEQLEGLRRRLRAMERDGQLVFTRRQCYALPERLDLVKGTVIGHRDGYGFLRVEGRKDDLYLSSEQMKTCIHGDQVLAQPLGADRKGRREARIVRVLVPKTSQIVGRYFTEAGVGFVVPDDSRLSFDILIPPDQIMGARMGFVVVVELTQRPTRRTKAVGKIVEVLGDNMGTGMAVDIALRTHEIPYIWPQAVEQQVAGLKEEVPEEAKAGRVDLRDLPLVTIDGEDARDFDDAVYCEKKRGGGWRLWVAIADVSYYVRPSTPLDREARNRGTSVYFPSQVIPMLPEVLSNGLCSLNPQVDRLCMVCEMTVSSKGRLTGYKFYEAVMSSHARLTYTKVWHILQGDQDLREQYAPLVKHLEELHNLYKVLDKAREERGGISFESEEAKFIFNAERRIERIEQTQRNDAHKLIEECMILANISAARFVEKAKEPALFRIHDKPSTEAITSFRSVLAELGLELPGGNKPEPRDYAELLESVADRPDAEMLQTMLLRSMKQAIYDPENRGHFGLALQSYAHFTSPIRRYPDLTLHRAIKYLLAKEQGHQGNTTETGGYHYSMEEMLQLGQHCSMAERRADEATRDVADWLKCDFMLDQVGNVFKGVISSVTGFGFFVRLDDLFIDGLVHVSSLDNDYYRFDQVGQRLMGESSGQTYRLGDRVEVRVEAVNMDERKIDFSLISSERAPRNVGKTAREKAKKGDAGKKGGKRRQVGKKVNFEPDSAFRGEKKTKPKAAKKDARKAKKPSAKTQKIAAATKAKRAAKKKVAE
Assay: fluorescence polarization
readout_name: Kd (nM)
Give your result in nM as a bare value.

# Kd lookup, item AAAAAAAAAAAAAAAAAAAAAAAAAAAAAA (ssRNA) [Cy3-poly(A)30 ssRNA]
11.2
